This collection of values is drawn from ChEMBL document CHEMBL1145498.

Read-out record for Serine/threonine-protein kinase PLK1 (Homo sapiens) (UniProt P53350): ΔTm
Value expressed in °C; do not type the unit.

Consider the following illustrative entries.
>>> print(df.to_string())
                                   compound                             target_system  endpoint_result
0  CC(C)(C)c1cc(C=C2C(=O)C=CC2=O)cc(C(C)(C)C)c1O  Serine/threonine-protein kinase PLK1 (Homo sapiens) (UniProt P53350)              1.1
1  COc1ccc(CNc2nc(N(CCO)CCO)nc3c2ncn3C(C)C)cc1  Serine/threonine-protein kinase PLK1 (Homo sapiens) (UniProt P53350)              0.9

// assay Serine/threonine-protein kinase PLK1 (Homo sapiens) (UniProt P53350), entry NC1=NC(=O)/C(=C2\CCNC(=O)c3[nH]c(Br)cc32)N1 , ΔTm value = 5.8

Entry O=C1c2ccccc2-c2n[nH]c3cccc1c23 ; assay system Serine/threonine-protein kinase PLK1 (Homo sapiens) (UniProt P53350); ΔTm recorded at 1.6

* * *

- target_system: UniProtKB Q02763
- Sequence (Q02763 whole entry): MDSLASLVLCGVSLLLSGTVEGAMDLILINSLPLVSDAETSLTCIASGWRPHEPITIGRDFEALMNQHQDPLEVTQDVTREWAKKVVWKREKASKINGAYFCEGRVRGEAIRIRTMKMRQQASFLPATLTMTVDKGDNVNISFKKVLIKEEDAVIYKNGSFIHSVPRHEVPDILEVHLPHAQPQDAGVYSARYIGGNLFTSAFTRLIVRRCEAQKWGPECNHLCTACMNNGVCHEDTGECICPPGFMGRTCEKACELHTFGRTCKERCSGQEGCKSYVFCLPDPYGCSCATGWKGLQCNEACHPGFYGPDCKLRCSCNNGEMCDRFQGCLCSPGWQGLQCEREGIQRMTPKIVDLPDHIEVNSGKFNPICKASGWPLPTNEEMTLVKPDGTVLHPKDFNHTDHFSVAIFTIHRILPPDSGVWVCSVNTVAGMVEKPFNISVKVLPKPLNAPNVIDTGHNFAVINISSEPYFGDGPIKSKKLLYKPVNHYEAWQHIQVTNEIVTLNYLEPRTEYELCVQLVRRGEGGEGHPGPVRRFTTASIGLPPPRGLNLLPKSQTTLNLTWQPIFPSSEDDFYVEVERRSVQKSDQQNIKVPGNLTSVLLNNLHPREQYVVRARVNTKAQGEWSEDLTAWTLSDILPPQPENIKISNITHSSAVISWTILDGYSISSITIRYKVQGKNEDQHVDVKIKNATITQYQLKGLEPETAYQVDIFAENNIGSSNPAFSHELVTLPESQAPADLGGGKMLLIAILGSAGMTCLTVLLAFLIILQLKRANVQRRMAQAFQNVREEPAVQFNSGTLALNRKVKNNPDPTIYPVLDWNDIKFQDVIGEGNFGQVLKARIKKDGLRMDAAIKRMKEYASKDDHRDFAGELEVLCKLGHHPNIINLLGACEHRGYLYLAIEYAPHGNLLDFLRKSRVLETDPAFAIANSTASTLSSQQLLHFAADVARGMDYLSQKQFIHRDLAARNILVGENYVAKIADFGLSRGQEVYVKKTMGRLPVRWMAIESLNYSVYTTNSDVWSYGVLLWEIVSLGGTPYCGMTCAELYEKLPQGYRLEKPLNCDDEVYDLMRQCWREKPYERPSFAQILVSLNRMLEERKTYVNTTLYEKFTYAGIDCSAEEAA
pIC50: −log10 of the molar value.
test_readout: pIC50

Noted pIC50 for CN1CCc2[nH]c(=S)c(C#N)c(-c3cccs3)c2C1 , tested on UniProtKB Q02763: < 5.00

* * *

- target_system: Serine/threonine-protein kinase pim-1 (Homo sapiens) (UniProt P11309)
- Sequence (P11309 whole entry, looked up): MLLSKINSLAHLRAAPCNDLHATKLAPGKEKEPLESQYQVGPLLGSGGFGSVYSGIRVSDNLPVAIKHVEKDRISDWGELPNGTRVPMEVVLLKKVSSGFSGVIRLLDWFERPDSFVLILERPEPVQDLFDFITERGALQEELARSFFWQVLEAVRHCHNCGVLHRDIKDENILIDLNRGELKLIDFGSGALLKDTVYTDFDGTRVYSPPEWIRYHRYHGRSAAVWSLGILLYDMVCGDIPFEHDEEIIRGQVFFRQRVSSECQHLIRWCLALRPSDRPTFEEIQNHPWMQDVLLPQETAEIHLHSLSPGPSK
test_readout: ΔTm (°C)
Form entry: value (°C) — number only.

                    structure_smiles_string  unit_string  endpoint_result
0  NC(=O)c1ccc(-c2nc(-c3ccc4c(c3)OCCO4)c(-c3ccccn3)[nH]2)cc1           °C             -0.5
1  COc1cc(C[C@H]2C(=O)OC[C@@H]2Cc2ccc(OC)c(OC)c2)ccc1O           °C             -0.3
2  Cn1cc(C2=C(c3cn(CCCN)c4ccccc34)C(=O)NC2=O)c2ccccc21           °C              8.3
3  CN(c1cccnc1)c1cc2c(Nc3ccc(F)c(Cl)c3)c(C#N)cnc2cn1           °C              0.1
4                     CN(C)c1ncnc2nc[nH]c12           °C                0

Observed ΔTm, Serine/threonine-protein kinase pim-1 (Homo sapiens) (UniProt P11309), N#C/C(=C1/Nc2ccccc2S1)c1ccnc(NCCc2cccnc2)n1 : 10

* * *

Below are compounds with their ΔTm as measured on TRAF2 and NCK-interacting protein kinase (Homo sapiens) (UniProt Q9UKE5).
Sequence (Q9UKE5 whole entry, looked up): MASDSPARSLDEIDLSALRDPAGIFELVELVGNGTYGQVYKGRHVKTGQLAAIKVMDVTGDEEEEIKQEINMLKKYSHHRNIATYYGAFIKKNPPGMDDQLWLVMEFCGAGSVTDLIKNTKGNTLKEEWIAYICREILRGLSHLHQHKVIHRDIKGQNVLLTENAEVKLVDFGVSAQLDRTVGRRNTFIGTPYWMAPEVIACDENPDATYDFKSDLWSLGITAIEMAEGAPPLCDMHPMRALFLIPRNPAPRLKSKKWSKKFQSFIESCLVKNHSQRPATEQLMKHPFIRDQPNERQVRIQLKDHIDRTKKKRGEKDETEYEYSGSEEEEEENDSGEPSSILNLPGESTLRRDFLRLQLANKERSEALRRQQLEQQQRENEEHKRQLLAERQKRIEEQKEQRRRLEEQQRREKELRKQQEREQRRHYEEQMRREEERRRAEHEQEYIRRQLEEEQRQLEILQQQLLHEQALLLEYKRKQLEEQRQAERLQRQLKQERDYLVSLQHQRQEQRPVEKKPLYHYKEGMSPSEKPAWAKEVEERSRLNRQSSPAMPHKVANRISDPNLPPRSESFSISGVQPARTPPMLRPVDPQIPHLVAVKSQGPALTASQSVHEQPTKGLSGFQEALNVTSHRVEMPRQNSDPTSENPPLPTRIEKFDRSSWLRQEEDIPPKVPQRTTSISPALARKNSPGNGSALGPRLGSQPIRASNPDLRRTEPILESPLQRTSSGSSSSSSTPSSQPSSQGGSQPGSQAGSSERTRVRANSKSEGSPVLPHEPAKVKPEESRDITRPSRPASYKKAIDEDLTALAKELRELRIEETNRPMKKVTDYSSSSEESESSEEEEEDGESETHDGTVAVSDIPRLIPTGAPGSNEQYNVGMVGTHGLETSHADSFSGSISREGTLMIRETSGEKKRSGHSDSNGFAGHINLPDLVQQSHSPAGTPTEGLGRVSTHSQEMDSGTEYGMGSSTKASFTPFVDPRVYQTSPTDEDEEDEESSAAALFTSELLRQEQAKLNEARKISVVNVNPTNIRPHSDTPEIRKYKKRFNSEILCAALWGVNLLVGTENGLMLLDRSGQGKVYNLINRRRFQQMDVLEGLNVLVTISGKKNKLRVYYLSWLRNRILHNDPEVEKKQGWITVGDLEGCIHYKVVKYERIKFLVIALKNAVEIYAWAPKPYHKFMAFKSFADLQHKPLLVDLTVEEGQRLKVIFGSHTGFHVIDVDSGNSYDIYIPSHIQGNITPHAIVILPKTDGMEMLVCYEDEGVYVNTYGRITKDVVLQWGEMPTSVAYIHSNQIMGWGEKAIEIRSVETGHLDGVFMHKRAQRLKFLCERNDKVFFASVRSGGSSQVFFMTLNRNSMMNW
Just the number in °C, nothing appended.

                    structure_smiles_string  endpoint_result
0  Nc1nc(Nc2ccc(S(N)(=O)=O)cc2)nn1C(=S)Nc1c(F)cccc1F              9.9

// below: ΔTm requested for another compound
Reported ΔTm of NC1=NC(=O)/C(=C2\CCNC(=O)c3[nH]c(Br)cc32)N1 : 4.7

* * *

- target_system: Mitogen-activated protein kinase kinase kinase 5 (Homo sapiens)
Listing of entries alongside the reported ΔTm.
State the value with its unit after it.

Worked examples follow.
>>> print(df.to_string())
                    structure_smiles_string  endpoint_result
0             O=C1Nc2ccccc2/C1=C/c1cnc[nH]1             5 °C
1         Oc1cc(O)cc(/C=C/c2ccc(O)c(O)c2)c1          -0.6 °C
2  O=C1Nc2cc(Br)ccc2/C1=C1/Nc2ccccc2/C1=N\O            -1 °C
3                   Nc1n[nH]c2nc3ccccc3nc12           2.6 °C
4    CC(C)n1cnc2c(NCc3ccccc3O)nc(NCCCO)nc21             1 °C

With Mitogen-activated protein kinase kinase kinase 5 (Homo sapiens) as the test system, Cn1cc(/C=C2/C(=O)Nc3ccc(S(N)(=O)=O)cc32)c2ccccc21 showed ΔTm of 1 °C

Given the compound CC(C)[C@H](CO)Nc1nc(Nc2cc(N)cc(Cl)c2)c2ncn(C(C)C)c2n1 and test system Mitogen-activated protein kinase kinase kinase 5 (Homo sapiens), the measured ΔTm is 2.4 °C
